# System: RSK2(Kin.Dom.1-N-terminal);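 also: KINOMEscan kinase panel screen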
# Construct: gene RPS6KA3
# ASSAY CONTEXT: concentration: 1 μM, replicates: in singlicate; n = 1
Parameter: %Inh. Scope: all listed entries.
The reply should be a number in %, with the unit left off.

Cc1nn2c(=O)cc(N3CCOCC3)nc2n1Cc1cccc(Cl)c1Cl | 9
Nc1ncnc2c1ncn2-c1cccc2ccccc12 | 38
CCn1c(-c2ccoc2)nc2cnccc21 | 0
COc1cc(Nc2nccc(N3CCC(NC(=O)C4COc5ccccc5O4)C3)n2)cc(OC)c1OC (stereo not shown) | 0
COc1cc(Nc2ccnc3ccc(C(F)(F)F)cc23)cc(OC)c1OC | 98.3

Q: Please look up its %Inh: COC(=O)c1c(-c2ccccc2)c2cc(C)ccc2c(=O)n1Cc1ccccc1
Result: 0

Q: Please look up its %Inh: CCc1ccc(-c2ccc3c(c2)-c2nn(C)cc2S(=O)(=O)N3C)cc1
Result: 15

Q: Please look up its %Inh: O=C1NC(=O)C(c2ccccc2)=C1Nc1cccc(O)c1
Result: 24

Q: Please look up its %Inh: Nc1ncnc2c1ncn2-c1cccc(F)c1
Result: 23

Q: Please look up its %Inh: CCn1c(-c2nonc2N)nc2ccccc21
Result: 41

Q: Please look up its %Inh: CN1C(=O)C(Nc2ccccc2)=C(c2ccccc2)C1=O
Result: 37

Q: Please look up its %Inh: O=C(Nc1n[nH]c2nc(-c3ccccc3)c(Br)cc12)C1CC1
Result: 7

Q: Please look up its %Inh: Nc1n[nH]c2ncc(-c3ccccc3)cc12
Result: 10

Q: Please look up its %Inh: COc1cc2ncn(-c3cc(OCCCc4ccccc4)c(C(N)=O)s3)c2cc1OC
Result: 7

Q: Please look up its %Inh: Cc1ccc(-c2ccc3c(ccc4sc5c(c43)NC[C@@H](C)N=C5N(C)C)n2)cn1
Result: 0

Q: Please look up its %Inh: COC(=O)c1c(-c2ccccc2)c2cc(Br)ccc2c(=O)n1Cc1ccc(NC(=O)CCC(=O)O)cc1
Result: 0

Q: Please look up its %Inh: COc1ccc(CNC(=O)NC2CCN(c3ccnc(Nc4ccc(F)cc4)n3)C2)cc1 (stereo not shown)
Result: 0

Q: Please look up its %Inh: COc1ccc(-c2cc3c(C)nc(N)nc3n([C@H]3CC[C@H](O)CC3)c2=O)cn1
Result: 0

Q: Please look up its %Inh: COC(=O)c1c(-c2ccccc2)c2cc(Br)ccc2c(=O)n1Cc1ccc(S(C)(=O)=O)cc1
Result: 0

Q: Please look up its %Inh: Cn1c(=O)c(F)c(Nc2ccc(I)cc2F)c2c(=O)n(OC[C@H](O)CO)cnc21
Result: 39

Q: Please look up its %Inh: CN(C)c1cc(-c2ccc3c(N)n[nH]c3c2)nc(N)n1
Result: 0

Q: Please look up its %Inh: Cc1cc(Nc2nc(-c3cccc(C)n3)nc3ccccc23)ccn1
Result: 24
